- System: 616215-338-R-J1-PDC complex spheroid growth, % test/control
- procedure_text: Anticancer human tumor 616215-338-R-J1-PDC patient-derived colon adenocarcinoma cell line growth inhibition [Asc]
- experimental_context: second compound 0.00316 µM; first compound 0.316 µM; hits give low values
measured_metric: viability, T/C

As a guide, the following entries are already answered.
O=C(c1cc(Cc2n[nH]c(=O)c3ccccc23)ccc1F)N1CCN(C(=O)C2CC2)CC1 + CNC(C)C(=O)NC1CN(S(=O)(=O)c2cccc(S(=O)(=O)N3CCC4CCC(C(=O)NC(c5ccccc5)c5ccccc5)N4C(=O)C(NC(=O)C(C)NC)C3)c2)CCC2CCC(C(=O)NC(c3ccccc3)c3ccccc3)N2C1=O | 12.9%
O=C(c1ccc(F)c(F)c1Nc1ccc(I)cc1F)N1CC(O)([C@@H]2CCCCN2)C1 + CNC(C)C(=O)NC1CN(S(=O)(=O)c2cccc(S(=O)(=O)N3CCC4CCC(C(=O)NC(c5ccccc5)c5ccccc5)N4C(=O)C(NC(=O)C(C)NC)C3)c2)CCC2CCC(C(=O)NC(c3ccccc3)c3ccccc3)N2C1=O | 0.64%

// switching to the query compound
Data request: What value of measured viability, T/C is listed for C#Cc1c(F)ccc2cc(O)cc(-c3ncc4c(N5CC6CCC(C5)N6)nc(OCC56CCCN5CC(F)C6)nc4c3F)c12 (stereo not drawn) + CNC(C)C(=O)NC1CN(S(=O)(=O)c2cccc(S(=O)(=O)N3CCC4CCC(C(=O)NC(c5ccccc5)c5ccccc5)N4C(=O)C(NC(=O)C(C)NC)C3)c2)CCC2CCC(C(=O)NC(c3ccccc3)c3ccccc3)N2C1=O ?
Data returned: 95.6%

* * *

- Test system: 616215-338-R-J1-PDC complex spheroid growth, % test/control
- procedure_text: Anticancer human tumor 616215-338-R-J1-PDC cell line growth inhibition [Asc]; active = viability on the fitted dose curve at most 10% of control; inactive = the rest;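 note: spheroids exposed to agents for seven days before readout; 100% = DMSO vehicle control viability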
- experimental_context: second compound 10 µM; first compound 10 µM
The reply should name one outcome from active, inactive

Examples from the recorded data:
C=C(F)C(=O)N1CCN(c2nc(OCC3CCCN3C)nc3c2CCN(c2cccc4cccc(Cl)c24)C3)CC1CC#N (centres undefined) + Cc1c(S(C)(=O)=O)c(-c2cc(F)cc(N3CCN(c4ccc(NS(=O)(=O)c5ccc(NC(CCN6CCC(C(=O)OCCCP(=O)(O)O)CC6)CSc6ccccc6)c(S(=O)(=O)C(F)(F)F)c5)cc4)CC3)c2)c(-c2ccc(Cl)cc2)n1C(C)C | active
C=CC(=O)N1CCN(c2nc(=O)n(-c3c(C)ccnc3C(C)C)c3nc(-c4c(O)cccc4F)c(F)cc23)C(C)C1 (centres undefined) + Cc1c(S(C)(=O)=O)c(-c2cc(F)cc(N3CCN(c4ccc(NS(=O)(=O)c5ccc(NC(CCN6CCC(C(=O)OCCCP(=O)(O)O)CC6)CSc6ccccc6)c(S(=O)(=O)C(F)(F)F)c5)cc4)CC3)c2)c(-c2ccc(Cl)cc2)n1C(C)C | inactive
O=C(c1cc(Cc2n[nH]c(=O)c3ccccc23)ccc1F)N1CCN(C(=O)C2CC2)CC1 + Cc1c(S(C)(=O)=O)c(-c2cc(F)cc(N3CCN(c4ccc(NS(=O)(=O)c5ccc(NC(CCN6CCC(C(=O)OCCCP(=O)(O)O)CC6)CSc6ccccc6)c(S(=O)(=O)C(F)(F)F)c5)cc4)CC3)c2)c(-c2ccc(Cl)cc2)n1C(C)C | active

Data request: // outcome(item) with item = C#Cc1c(F)ccc2cc(O)cc(-c3ncc4c(N5CC6CCC(C5)N6)nc(OCC56CCCN5CC(F)C6)nc4c3F)c12 (centres undefined) + Cc1c(S(C)(=O)=O)c(-c2cc(F)cc(N3CCN(c4ccc(NS(=O)(=O)c5ccc(NC(CCN6CCC(C(=O)OCCCP(=O)(O)O)CC6)CSc6ccccc6)c(S(=O)(=O)C(F)(F)F)c5)cc4)CC3)c2)c(-c2ccc(Cl)cc2)n1C(C)C
Data returned: active
